This collection of values is drawn from the supplement of paper PMC7877785.

- ASSAY_PROTOCOL: self-splicing fitness, log relative to wild type (ln ratio); higher = more splicing; Tetrahymena group I intron in knt gene, E. coli kanamycin selection, DiMSum; sequences stand for … in CUCUCU…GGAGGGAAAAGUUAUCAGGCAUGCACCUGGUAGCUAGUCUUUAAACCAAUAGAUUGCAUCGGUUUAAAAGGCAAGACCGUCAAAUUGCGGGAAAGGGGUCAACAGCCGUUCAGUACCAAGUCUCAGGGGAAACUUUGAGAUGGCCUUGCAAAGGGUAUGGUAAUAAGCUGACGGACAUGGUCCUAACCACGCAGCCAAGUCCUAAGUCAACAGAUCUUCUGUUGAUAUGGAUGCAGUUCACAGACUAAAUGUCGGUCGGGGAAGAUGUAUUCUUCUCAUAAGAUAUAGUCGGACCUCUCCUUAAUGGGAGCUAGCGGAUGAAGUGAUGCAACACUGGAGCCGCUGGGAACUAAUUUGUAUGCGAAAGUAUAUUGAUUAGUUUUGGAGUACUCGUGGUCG;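 note: selection with 25 µg/mL kanamycin versus none on LB agar overnight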
- RUN_PARAMETERS: 37 °C
Recorded self-splicing fitness (ln) by entry
Output spec: single numeric token, no unit.

Ask: What does the data say about its self-splicing fitness (ln)? Entry: CCCUAGCAAUAUUACGUAUC
Reply: -3.37
